Data origin, for the record: patent US20090035322A1

Measurement Target: T1, mutant human CD20 #2 (N163D) (human, UniProt P11836 1-297)
T1 construct: Stably expressed on MG87 cells
T1 sequence: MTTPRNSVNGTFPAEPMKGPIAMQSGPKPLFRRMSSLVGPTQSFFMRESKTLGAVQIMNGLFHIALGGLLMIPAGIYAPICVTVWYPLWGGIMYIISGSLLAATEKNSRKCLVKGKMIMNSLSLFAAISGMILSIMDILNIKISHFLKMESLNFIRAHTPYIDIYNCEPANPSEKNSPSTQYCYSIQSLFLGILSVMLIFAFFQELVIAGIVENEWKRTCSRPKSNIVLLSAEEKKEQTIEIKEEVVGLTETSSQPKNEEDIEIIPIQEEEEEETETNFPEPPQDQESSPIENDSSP
Assay Notes: FACS, mutant-hCD20 MG87 cells; 100%=best antibody
Attribute: Percent of Binding to Mutant Human CD20
Measured Quantity: Percent of Binding to Mutant Human CD20

binder="2F2 (antibody, V domains shown) VH: EVQLVESGGGLVQPGRSLRLSCAASGFTFNDYAMHWVRQAPGKGLEWVSTISWNSGSIGYADSVKGRFTISRDNAKKSLYLQMNSLRAEDTALYYCAKDIQYGNYYYGMDVWGQGTTVTVSS VL: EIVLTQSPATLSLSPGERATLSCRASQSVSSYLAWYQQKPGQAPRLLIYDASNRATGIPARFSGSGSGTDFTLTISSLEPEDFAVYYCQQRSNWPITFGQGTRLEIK" measured_quantity="Percent of Binding to Mutant Human CD20" result=30%
binder="2B7-7 (antibody, V domains shown, Fully human IgG, constant region not specified; also called 2B7-7N) VH: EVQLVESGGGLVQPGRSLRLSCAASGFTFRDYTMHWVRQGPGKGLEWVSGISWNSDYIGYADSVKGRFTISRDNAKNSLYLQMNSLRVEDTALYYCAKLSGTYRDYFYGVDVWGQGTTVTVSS VL: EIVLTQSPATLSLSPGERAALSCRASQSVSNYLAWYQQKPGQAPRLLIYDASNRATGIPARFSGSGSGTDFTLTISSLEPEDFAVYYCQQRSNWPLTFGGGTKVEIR" measured_quantity="Percent of Binding to Mutant Human CD20" result=40%
binder="9H4-12 (antibody, V domains shown, Fully human IgG, constant region not specified; also called 9H4-12N) VH: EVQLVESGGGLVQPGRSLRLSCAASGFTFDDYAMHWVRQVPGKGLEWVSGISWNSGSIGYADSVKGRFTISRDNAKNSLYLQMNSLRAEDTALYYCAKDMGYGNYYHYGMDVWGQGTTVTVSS VL: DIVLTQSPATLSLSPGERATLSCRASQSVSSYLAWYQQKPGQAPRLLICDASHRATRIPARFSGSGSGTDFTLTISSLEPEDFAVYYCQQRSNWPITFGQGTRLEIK" measured_quantity="Percent of Binding to Mutant Human CD20" result=0%
binder="2C11-4 (antibody, V domains shown, Fully human IgG, constant region not specified; also called 2C11-4N) VH: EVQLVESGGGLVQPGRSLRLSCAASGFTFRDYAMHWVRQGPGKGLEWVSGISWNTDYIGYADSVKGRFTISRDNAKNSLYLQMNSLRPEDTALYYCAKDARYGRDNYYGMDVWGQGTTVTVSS VL: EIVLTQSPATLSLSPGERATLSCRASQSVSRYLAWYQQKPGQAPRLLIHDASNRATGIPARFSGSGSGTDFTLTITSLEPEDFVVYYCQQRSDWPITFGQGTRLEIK" measured_quantity="Percent of Binding to Mutant Human CD20" result=0%
binder="3B9-10 (antibody, V domains shown, Fully human IgG, constant region not specified; also called 3B9-10N) VH: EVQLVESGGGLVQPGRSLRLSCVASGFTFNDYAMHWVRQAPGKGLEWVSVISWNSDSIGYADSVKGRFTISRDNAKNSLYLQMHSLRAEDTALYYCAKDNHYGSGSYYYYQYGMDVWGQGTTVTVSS VL: EIVMTQSPATLSVSPGERATLSCRASQSVSSNLAWYQQKPGQAPRLLIYGTSTRATGIPARFSGSGSGTEFTLTISSLQSEDFAVYYCQQYNNWPLTFGGGTKVEIK" measured_quantity="Percent of Binding to Mutant Human CD20" result=6%
